# System: UACC-62 melanoma
# protocolDescription: NCI-60 one-dose screen, 48 h (100 = growth as untreated, 0 = no growth, -100 = all killed)
# testParameters: 10 µM unless noted
Compounds without any hit were thinned out: in the full panel of roughly 83,000, 20% have a hit.
valueType: growth (%)

* O=S(=O)(O)c1ccc(O)c(C2CCCCC2)c1 | 109
* Cc1ccccc1CC(N)C(=O)O (stereo not drawn) | 103
* COc1cccc(C(=O)NNC(=O)c2cccc3ccccc23)c1 | 128
* O=C1NC(=O)/C(=C\c2ccncc2)N1 | 95.8
* CCCCCC(=O)OCCC1CCCCC1 | 104
* O=S(Cc1ccccc1)/C(=C/NC(=S)Nc1cc(Cl)ccc1Cl)c1ccccc1 (stereo not drawn) | 98.6
* COc1cc(N)c2ncccc2c1Cl | 86.7
* C/C(Cc1ccccc1)=N\O | 106
* COc1ccc(Nc2cc(Cl)ccc2C(=O)O)cn1 | 96.3
* O=Cc1c(O)c2ccccc2[nH]c1=O | 87.9
* CC(CC(CCC(=O)O)(c1ccccc1)c1ccccc1)N(C)C (stereo not drawn) | 103
* COc1cc(C(=O)N2CCN(c3ccccc3)CC2)c2ccccc2n1 | 32.6
* Cc1[nH]n(-c2ccccc2)c(=O)c1C=NC(=S)C(N)=S | 93

###

# Test system: KM12 colon
# protocolDescription: NCI-60 one-dose screen, 48 h (100 = growth as untreated, 0 = no growth, -100 = all killed)
# testParameters: 10 µM unless noted
The panel holds about 83,000 compounds, 20% with a hit somewhere; the sample as a whole holds those more often.
Here the recorded growth is given for each entry.
valueType: growth (%)

- Clc1ccc(/C=C/c2ccccn2)cc1: 89.8
- C[n+]1cc2cc3c(cc2c2ccccc21)OCO3: 12.9
- CCCCCC#CC(=O)O: 121
- C=CCOc1ccc(Cl)cc1Cl: 109
- CNc1ccccc1C(=O)N/N=C/C=C/c1ccccc1: 22.2
- CC1(C)C2CCC1(C)C1(C2)OCCS1 (stereo unspecified): 102

###

# Test system: NCI-H23 lung
# protocolDescription: NCI-60 one-dose screen, 48 h (100 = growth as untreated, 0 = no growth, -100 = all killed)
# testParameters: 10 µM unless noted
# Description: Growth inhibition of the NCI-H23 human Non-Small Cell Lung tumor cell line is measured as a screen for anti-cancer activity. Cells are grown in 96 well plates and exposed to the test compound for 48 hours. Compounds are tested at a single concentration, which is 10^-5 M for most compounds. The reported endpoint is percent growth (GI% or GIPRCNT), where numbers from 0 - 100% represent growth inhibition, and numbers from -100% - 0 represent cell death. […]
This is part of a sample that, as a whole, favours compounds with a hit. Of some 83,000 tested, about 20% had one in any assay. The source made the active and inactive calls. Rule for the calls: active = growth percent below 10; inactive = the rest.
Here the recorded growth is given for each entry.
valueType: growth

• CCN1CCCC(N2c3ccccc3Sc3ccccc32)C1 (configuration not stated) = 103% (inactive)
• Cc1cc(C(=O)NN)c(C#N)c(=O)[nH]1 = 100% (inactive)
• Nc1ncnc2c1ncn2C1OC(CO)C2OC21 (configuration not stated) = 107% (inactive)
• O=C(NCc1ccco1)Nc1cccc2c(NC(=O)NCc3ccco3)cccc12 = 75.5% [100 µM] (inactive)
• CCOC(=O)C(CCC#N)(CCC#N)C(=O)OCC = 96.6% (inactive)
• O=C(O)Cc1ccc(Cl)cc1 = 114% (inactive)
• Nc1ncc([N+](=O)[O-])cn1 = 102% (inactive)
• COC(=O)C1(CC(C)=O)NC(=S)NC(=O)C1C#N (configuration not stated) = 99.5% (inactive)
• CCOc1ccccc1NC(=O)CCl = 71.4% (inactive)
• O=S(Cc1ccccc1)/C(=C/NC(=S)Nc1cc(Cl)ccc1Cl)c1ccccc1 (configuration not stated) = 97.1% (inactive)
• Cc1ccc2[nH]c3ccccc3c2c1 = 96.9% (inactive)
• FC(F)(F)c1cc(NC2=NCCN=C(Nc3cc(C(F)(F)F)cc(C(F)(F)F)c3)SS2)cc(C(F)(F)F)c1 = 47.2% (inactive)
